Just for reference, patent US10508118B2 is where these values come from.

Test system: lung cancer cells A549
Assay: Growth inhibition of tumor cells A549
Format: cell-based
Settings: Homo sapiens
Test readout: IC50 (nM)

molecule="COc1cc(N2CCC(N3CCN(C)CC3)CC2)ccc1Nc1nc(Nc2ccccc2S(=O)(=O)C(C)C)c2[nH]ccc2n1 [ID-3]" result=2720
molecule="C[C@@H](Oc1cc(-c2cnn(C3CCNCC3)c2)cnc1N)c1c(Cl)ccc(F)c1Cl [Crizotinib, crizotinib, reference compound]" result=2400

###

Target: EML4-ALK-BaF3 (Homo sapiens)
Construct: expressed in transfected cells; host or cells: Ba/F3 cells; the other entry of the earlier key: EML4 (Q9HC35, Echinoderm microtubule-associated protein-like 4)
Sequence (Q9UM73 1058-1620 limits assumed): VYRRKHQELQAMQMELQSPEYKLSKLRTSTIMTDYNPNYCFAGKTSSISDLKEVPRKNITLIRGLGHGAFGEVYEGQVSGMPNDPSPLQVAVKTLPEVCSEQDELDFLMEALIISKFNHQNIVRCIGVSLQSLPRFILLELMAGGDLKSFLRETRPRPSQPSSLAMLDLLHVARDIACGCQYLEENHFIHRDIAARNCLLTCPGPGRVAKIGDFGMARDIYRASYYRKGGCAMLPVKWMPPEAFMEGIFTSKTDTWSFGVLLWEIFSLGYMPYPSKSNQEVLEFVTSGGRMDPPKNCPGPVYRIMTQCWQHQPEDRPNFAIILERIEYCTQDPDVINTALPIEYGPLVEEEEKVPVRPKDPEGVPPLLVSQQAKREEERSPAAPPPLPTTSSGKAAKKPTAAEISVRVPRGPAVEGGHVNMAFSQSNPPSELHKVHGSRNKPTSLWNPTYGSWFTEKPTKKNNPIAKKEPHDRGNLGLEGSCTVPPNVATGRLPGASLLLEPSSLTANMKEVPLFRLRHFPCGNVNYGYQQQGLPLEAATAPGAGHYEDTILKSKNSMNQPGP
Assay: Growth inhibition of EML4-ALK transformed BaF3 cells (MTS)
Assay type: cell-based
Settings: EML4-ALK-BaF3 cells, 48 hours, MTS; Table 11
Test readout: IC50 (nM)

molecular_string=COc1cc(N2CCC(N3CCN(C)CC3)CC2)ccc1Nc1nc(Nc2ccccc2S(=O)(=O)C(C)C)c2[nH]ccc2n1 target_desc="EML4-ALK-BaF3 (Homo sapiens)" test_readout=IC50 units_label=nM result=14.9
molecular_string=COC(=O)c1ccccc1Nc1nc(Nc2ccc(OCc3ccccn3)cc2)nc2cc[nH]c12 target_desc="EML4-ALK-BaF3 (Homo sapiens)" test_readout=IC50 units_label=nM result=1830
molecular_string=COC(=O)c1ccccc1Nc1nc(Nc2ccc(C(=O)N3CCOCC3)cc2OC)nc2cc[nH]c12 target_desc="EML4-ALK-BaF3 (Homo sapiens)" test_readout=IC50 units_label=nM result=7610
molecular_string=CC(C)Sc1ccccc1Nc1nc(Nc2ccc(S(N)(=O)=O)cc2)nc2cc[nH]c12 target_desc="EML4-ALK-BaF3 (Homo sapiens)" test_readout=IC50 units_label=nM result=4220
molecular_string=COc1cc(N2CCN(C)CC2)ccc1Nc1nc(Nc2ccccc2S(=O)(=O)C(C)C)c2[nH]ccc2n1 target_desc="EML4-ALK-BaF3 (Homo sapiens)" test_readout=IC50 units_label=nM result=477
molecular_string=COC(=O)c1ccccc1Sc1nc(Nc2ccc(N3CCC(N4CCN(C)CC4)CC3)cc2OC)nc2cc[nH]c12 target_desc="EML4-ALK-BaF3 (Homo sapiens)" test_readout=IC50 units_label=nM result=4580

A. COC(=O)c1ccccc1Nc1nc(Nc2ccc(N3CCC(N4CCCC4)CC3)cc2OC)nc2cc[nH]c12
B. COC(=O)c1ccccc1Nc1nc(Nc2ccc(N3CCC(O)CC3)cc2)nc2cc[nH]c12
C. COC(=O)c1ccccc1Nc1nc(Nc2ccc(N3CCC(O)CC3)nc2)nc2cc[nH]c12
List the 3 entries from lowest IC50 to highest IC50 value. The reply should contain the labels ordered as requested.
A, B, C
